The entries below come with measured viability values attached.
protocol: drug combination growth inhibition, ovarian cancer – cell-based, oncology-focused library, rucaparib conditional, profiling panel (AID 1508598)
condition context: patient-derived ovarian cancer cells, CellTiter-Glo viability, 144 h; at 0.000305 µM; OCI-P5x cells; without rucaparib; active compounds read low
quantity measured: viability (%)

[
  {
    "compound": "COc1cccc(-c2cc(F)ccc2[C@H]2Cc3nc(N)nc(C)c3C(=O)N2)n1",
    "result units": "%",
    "result number": 113
  },
  {
    "compound": "COc1cccc2c1C(=O)c1c(O)c3c(c(O)c1C2=O)C[C@@](O)(C(C)=O)C[C@H]3O[C@H]1C[C@H](N)[C@H](O)[C@H](C)O1",
    "result units": "%",
    "result number": 105
  },
  {
    "compound": "CO[C@H]1/C=C\\C=C(\\C)C(=O)NC2=CC(=O)C(NCCN(C)C)=C(C[C@@H](C)C[C@H](OC)[C@H](O)[C@@H](C)/C=C(\\C)[C@@H]1OC(N)=O)C2=O",
    "result units": "%",
    "result number": 116
  },
  {
    "compound": "COC1=C2C[C@H](C)C[C@@H](OC)[C@H](O)[C@H](C)/C=C(\\C)[C@H](OC(N)=O)[C@@H](OC)/C=C/C=C(\\C)C(=O)NC(=CC1=O)C2=O",
    "result units": "%",
    "result number": 102
  },
  {
    "compound": "COc1ccc(C2=N[C@@H](c3ccc(Cl)cc3)[C@H](c3ccc(Cl)cc3)N2C(=O)N2CCNC(=O)C2)c(OC(C)C)c1",
    "result units": "%",
    "result number": 90.5
  },
  {
    "compound": "Nc1nonc1C(=Nc1ccc(F)c(Cl)c1)NO",
    "result units": "%",
    "result number": 92.2
  },
  {
    "compound": "Cc1cc(C)c(S(=O)(=O)n2cc(C)cc2C)c(C)c1",
    "result units": "%",
    "result number": 104
  },
  {
    "compound": "CC1=C(/C=C/C(C)=C\\C=C\\C(C)=C/C(=O)O)C(C)(C)CCC1",
    "result units": "%",
    "result number": 87.1
  },
  {
    "compound": "COc1ccccc1-c1cc(Nc2cccc(CS(N)(=O)=O)c2)ncn1",
    "result units": "%",
    "result number": 91.1
  },
  {
    "compound": "C[C@@H]1C[C@H]2[C@@H]3CCC4=CC(=O)C=C[C@]4(C)[C@]3(F)[C@H](O)C[C@]2(C)[C@]1(O)C(=O)CO",
    "result units": "%",
    "result number": 121
  },
  {
    "compound": "C[C@]12CC[C@H]3c4ccc(O)cc4CC[C@H]3[C@@H]1CC[C@H]2O",
    "result units": "%",
    "result number": 110
  },
  {
    "compound": "CCCc1ccc(OCC(=O)N(Cc2nc(-c3cccnc3)no2)C(C)C)cc1",
    "result units": "%",
    "result number": 106
  },
  {
    "compound": "COc1cccc2c1C(=O)c1c(O)c3c(c(O)c1C2=O)C[C@@](O)(C(=O)CO)C[C@H]3O[C@H]1C[C@H](N)[C@H](O)[C@H](C)O1",
    "result units": "%",
    "result number": 109
  },
  {
    "compound": "OCCn1cc(-c2ccc3c(c2)CCC3=NO)c(-c2ccncc2)n1",
    "result units": "%",
    "result number": 92.8
  },
  {
    "compound": "C[C@@]12CC[C@H]3c4ccc(O)cc4C[C@@H](CCCCCCCCCS(=O)CCCC(F)(F)C(F)(F)F)[C@H]3[C@@H]1CC[C@@H]2O (stereo partly specified)",
    "result units": "%",
    "result number": 107
  },
  {
    "compound": "CC(=O)[C@]1(O)Cc2c(O)c3c(c(O)c2[C@H](O[C@H]2C[C@H](N)[C@H](O)[C@H](C)O2)C1)C(=O)c1ccccc1C3=O",
    "result units": "%",
    "result number": 115
  }
]
